The entries below are paired with their reported log10 of IC50.
system name: CDK6/CycD3 (Homo sapiens, UniProt Q00534)
Sequence (Q00534 whole entry, species assumed): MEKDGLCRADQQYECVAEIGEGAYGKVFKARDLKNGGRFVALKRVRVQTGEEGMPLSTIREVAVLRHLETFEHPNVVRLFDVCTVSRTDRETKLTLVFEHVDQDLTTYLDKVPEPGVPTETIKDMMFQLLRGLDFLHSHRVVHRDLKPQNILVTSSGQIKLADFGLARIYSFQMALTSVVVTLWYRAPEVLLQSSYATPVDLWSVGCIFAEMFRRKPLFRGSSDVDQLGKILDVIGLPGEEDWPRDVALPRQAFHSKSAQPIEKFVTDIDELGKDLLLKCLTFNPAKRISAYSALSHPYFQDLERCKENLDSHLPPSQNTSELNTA
Sequence (P30281 whole entry partner, species assumed): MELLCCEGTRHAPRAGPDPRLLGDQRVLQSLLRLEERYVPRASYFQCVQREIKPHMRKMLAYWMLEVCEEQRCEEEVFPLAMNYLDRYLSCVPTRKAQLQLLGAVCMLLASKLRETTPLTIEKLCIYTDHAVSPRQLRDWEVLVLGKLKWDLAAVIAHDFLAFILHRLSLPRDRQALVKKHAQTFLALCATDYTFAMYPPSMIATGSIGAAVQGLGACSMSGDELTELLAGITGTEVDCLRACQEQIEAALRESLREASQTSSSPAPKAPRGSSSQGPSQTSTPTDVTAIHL
procedure summary: Enzymatic inhibitory activity in vitro, CDK6 (Caliper mobility shift, FAM-labeled peptide)
Assay type: biochemical
result type: log10 of IC50 (log10 of the value in nM)

- compound: "CC(=O)c1c(C)c2cnc(Nc3ccc4c(n3)CCN(C3CCN(C)CC3)C4)nc2n(C2CCCC2)c1=O [Example 40]"
  system name: "CDK6/CycD3 (Homo sapiens, UniProt Q00534)"
  recorded value: 1.40
- compound: "CC(=O)c1c(C)c2cnc(Nc3ccc4c(n3)CCN(C3CCNCC3)C4)nc2n(C2CCCC2)c1=O [Example 39]"
  system name: "CDK6/CycD3 (Homo sapiens, UniProt Q00534)"
  recorded value: 1.71
- compound: "CC(=O)c1c(C)c2cnc(Nc3ccc4c(n3)CCN(C3COC3)C4)nc2n(C2CCCC2)c1=O [Example 41]"
  system name: "CDK6/CycD3 (Homo sapiens, UniProt Q00534)"
  recorded value: 1.77
- compound: "CC(=O)c1c(C)c2cnc(Nc3ccc4c(ccn4C4CCNCC4)c3)nc2n(C2CCCC2)c1=O [Example 1]"
  system name: "CDK6/CycD3 (Homo sapiens, UniProt Q00534)"
  recorded value: 1.47
- compound: "CCN1CCc2nc(Nc3ncc4c(C)c(C(C)=O)c(=O)n(C5CCCC5)c4n3)ccc2C1 [Example 7]"
  system name: "CDK6/CycD3 (Homo sapiens, UniProt Q00534)"
  recorded value: 1.92
- compound: "CC(=O)c1c(C)c2cnc(Nc3ccc4c(n3)CCN(CCC(F)(F)F)C4)nc2n(C2CCCC2)c1=O [Example 5]"
  system name: "CDK6/CycD3 (Homo sapiens, UniProt Q00534)"
  recorded value: 3.03
- compound: "CC(=O)c1c(C)c2cnc(Nc3ccc4c(n3)CCN(C(=O)CO)C4)nc2n(C2CCCC2)c1=O [Example 4]"
  system name: "CDK6/CycD3 (Homo sapiens, UniProt Q00534)"
  recorded value: 1.79
- compound: "CC(=O)c1c(C)c2cnc(Nc3ncnc4c(C5=CCNCC5)csc34)nc2n(C2CCCC2)c1=O [Example 2]"
  system name: "CDK6/CycD3 (Homo sapiens, UniProt Q00534)"
  recorded value: 3.68
- compound: "CC(=O)c1c(C)c2cnc(Nc3ccc4c(n3)CCNC4)nc2n(C2CCCC2)c1=O [Example 3]"
  system name: "CDK6/CycD3 (Homo sapiens, UniProt Q00534)"
  recorded value: 1.67
- compound: "CC(=O)c1c(C)c2cnc(Nc3ccc4c(n3)CCN(C(C)=O)C4)nc2n(C2CCCC2)c1=O [Example 6]"
  system name: "CDK6/CycD3 (Homo sapiens, UniProt Q00534)"
  recorded value: 1.81

---

procedure summary: Pharmacokinetics in rats (iv and oral, plasma LC-MS/MS)
Assay type: in vivo, male SD rats
details: rat, plasma; male SD rats, po, 5.0 mg/kg; read-out: Tmax

- molecule: "CC(=O)c1c(C)c2cnc(Nc3ccc(N4CCNCC4)cn3)nc2n(C2CCCC2)c1=O [Palbociclib, reference compound]"
  endpoint unit: "h"
  Tmax: 2.67

---

procedure summary: Pharmacokinetics in rats (iv and oral, plasma LC-MS/MS)
Format: in vivo, male SD rats
details: rat, plasma; male SD rats, po 5.0 mg/kg versus iv 1.0 mg/kg; read-out: F (%)
result type: bioavailability (%)

- compound: "CC(=O)c1c(C)c2cnc(Nc3ccc(N4CCNCC4)cn3)nc2n(C2CCCC2)c1=O [Palbociclib, reference compound]"
  result type: "bioavailability"
  recorded value: 79.9

---

procedure summary: Pharmacokinetics in rats (iv and oral, plasma LC-MS/MS)
Assay type: in vivo, male SD rats
details: male, SD, rat, in vivo, iv, 1 mg/kg

- molecule: "CC(=O)c1c(C)c2cnc(Nc3ccc4c(n3)CCNC4)nc2n(C2CCCC2)c1=O [Example 3]"
  Tmax [min]: 25.2

---

procedure summary: Pharmacokinetics in rats (iv and oral, plasma LC-MS/MS)
Type: in vivo, male SD rats
details: male, SD, rat, in vivo, po, 5 mg/kg

- compound: "CC(=O)c1c(C)c2cnc(Nc3ccc4c(n3)CCNC4)nc2n(C2CCCC2)c1=O [Example 3]"
  AUC(0-inf) [ng·h/mL]: 2970

---

system name: CDK4/CycD3 (Homo sapiens, UniProt P11802)
Sequence (P11802 whole entry, species assumed): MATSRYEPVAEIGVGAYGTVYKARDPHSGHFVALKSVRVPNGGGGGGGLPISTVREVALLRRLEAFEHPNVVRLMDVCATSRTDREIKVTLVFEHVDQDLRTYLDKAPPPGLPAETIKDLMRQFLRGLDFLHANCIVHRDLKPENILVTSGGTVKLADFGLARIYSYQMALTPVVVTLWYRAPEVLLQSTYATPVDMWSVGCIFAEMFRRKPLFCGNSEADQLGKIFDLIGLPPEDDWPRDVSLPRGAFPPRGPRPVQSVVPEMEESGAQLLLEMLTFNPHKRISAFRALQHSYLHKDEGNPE
Sequence (P30281 whole entry partner, species assumed): as the sequence (P30281 whole entry partner, species assumed) above
procedure summary: Enzymatic inhibitory activity in vitro, CDK4 (Caliper mobility shift, FAM-labeled peptide)
Format: biochemical
condition met if IC50 is below 20 nM. condition not met if not; exact matches included in condition not met.

- item smiles: "CC(=O)c1c(C)c2cnc(Nc3ccc4c(n3)CCN(C3CCN(C)CC3)C4)nc2n(C2CCCC2)c1=O"
  assigned class: "condition met"
- item smiles: "CC(=O)c1c(C)c2cnc(Nc3ccc4c(n3)CCN(C3CCNCC3)C4)nc2n(C2CCCC2)c1=O"
  assigned class: "condition met"
- item smiles: "CC(=O)c1c(C)c2cnc(Nc3ccc4c(n3)CCNC4)nc2n(C2CCCC2)c1=O"
  assigned class: "condition met"
- item smiles: "CC(=O)c1c(C)c2cnc(Nc3ccc4c(n3)CCN(C(=O)CO)C4)nc2n(C2CCCC2)c1=O"
  assigned class: "condition met"
- item smiles: "CC(=O)c1c(C)c2cnc(Nc3ccc4c(n3)CCN(C3COC3)C4)nc2n(C2CCCC2)c1=O"
  assigned class: "condition met"
- item smiles: "CC(=O)c1c(C)c2cnc(Nc3ccc4c(n3)CCN(CCC(F)(F)F)C4)nc2n(C2CCCC2)c1=O"
  assigned class: "condition not met"
- item smiles: "CC(=O)c1c(C)c2cnc(Nc3ncnc4c(C5=CCNCC5)csc34)nc2n(C2CCCC2)c1=O"
  assigned class: "condition not met"
- item smiles: "CC(=O)c1c(C)c2cnc(Nc3ccc4c(ccn4C4CCNCC4)c3)nc2n(C2CCCC2)c1=O"
  assigned class: "condition met"
- item smiles: "CCN1CCc2nc(Nc3ncc4c(C)c(C(C)=O)c(=O)n(C5CCCC5)c4n3)ccc2C1"
  assigned class: "condition met"

---

procedure summary: Pharmacokinetics in rats (iv and oral, plasma LC-MS/MS)
Type: in vivo, male SD rats
details: rat, plasma; male SD rats, po, 5.0 mg/kg; read-out: Cmax
Method: The assay agents and samples are as shown below: […] Grouping male SD rats weighing 190-250 g randomly to two groups; one group was administered with test compound at a dose of 1.0 mg/kg by intravenous injection, the other group was administered with test compound at a dose of 5.0 mg/kg by oral. […] Standard curve was plotted based on concentrations of the samples in a suitable range, the concentrations of test compounds in plasma samples were determined by using LC-MS/MS. […]
result type: Cmax (ng/mL)

- compound: "CC(=O)c1c(C)c2cnc(Nc3ccc(N4CCNCC4)cn3)nc2n(C2CCCC2)c1=O [Palbociclib, reference compound]"
  result type: "Cmax"
  endpoint unit: "ng/mL"
  recorded value: 156

Data origin, for the record: patent US9828373B2
